Cited source: patent US20080031866A1

Assay: Intraduodenal dosing with and without β-glucuronidase, catheterized rat
Format: in vivo
Settings: male, Sprague Dawley, rat, plasma, other: intraduodenal, 10 mg/kg, rats N=6; Compound 1 10 mg/kg intraduodenal without enzyme; 5 hrs
concentration at 5 h: recorded values
Dear colleague, please return just the value in µg/mL, with no unit written.

Some solved cases for reference:
compound	concentration at 5 h, µg/mL
COc1cc2c(cc1OC)-c1n[nH]c(Nc3cccc(F)c3)c1C2	0
COc1cc2c(cc1OC)-c1n[nH]c(N(c3cccc(F)c3)[C@H]3O[C@@H](C(=O)O)[C@H](O)[C@@H](O)[C@@H]3O)c1C2	0.0831

Note: attention shifts to another entry.
Return value of concentration at 5 h for input COc1cc2c(cc1OC)-c1nn(C3OC(C(=O)O)C(O)C(O)C3O)c(Nc3cccc(F)c3)c1C2 (stereo in doubt) , no commentary.
0.0092

====

Assay: Oral gavage pharmacokinetics, jugular and portal vein sampling, first pass metabolism
Assay type: in vivo, rat
Settings: male, Sprague Dawley, rat, plasma (jugular vein sample); rats N=4; Compound 1 75 mg/kg oral gavage; jugular sample; 1 hr
Listed next: entries and their corresponding concentration at 1 h.
Numeric only. Scale: ng/mL

Some solved entries appear below for comparison.
compound	measured_quantity	value_unit	data_value
COc1cc2c(cc1OC)-c1nn(C3OC(C(=O)O)C(O)C(O)C3O)c(Nc3cccc(F)c3)c1C2 (stereo in doubt)	concentration at 1 h	ng/mL	230
COc1cc2c(cc1OC)-c1n[nH]c(Nc3cccc(F)c3)c1C2	concentration at 1 h	ng/mL	442

// moving on: another record for concentration at 1 h
Tell me measured concentration at 1 h for `COc1cc2c(cc1OC)-c1n[nH]c(N(c3cccc(F)c3)[C@H]3O[C@@H](C(=O)O)[C@H](O)[C@@H](O)[C@@H]3O)c1C2` please.
14300

====

Assay: Intracolonic dosing with and without β-glucuronidase, catheterized rat
Assay type: in vivo
Conditions: male, Sprague Dawley, rat, plasma, other: intracolonic, 10 mg/kg, rats N=6; Compound 1 10 mg/kg intracolonic without enzyme; 6 hrs
Examples of compounds with documented concentration at 6 h follow.
Field: numeric (ng/mL). Do not append units.

compound	concentration at 6 h [ng/mL]
COc1cc2c(cc1OC)-c1nn(C3OC(C(=O)O)C(O)C(O)C3O)c(Nc3cccc(F)c3)c1C2 (stereo in doubt)	10.4
COc1cc2c(cc1OC)-c1n[nH]c(Nc3cccc(F)c3)c1C2	0

Report concentration at 6 h, nothing else, for this compound: `COc1cc2c(cc1OC)-c1n[nH]c(N(c3cccc(F)c3)[C@H]3O[C@@H](C(=O)O)[C@H](O)[C@@H](O)[C@@H]3O)c1C2`
90.2

====

Assay: Solubility
Type: physicochemical
Conditions: aqueous with cosolvent or surfactant or cyclodextrin; 20/80-weight% Tween 80/DI water; read-out: Solubility
measured_quantity: solubility (µg/mL)
Provide the reading as a plain figure in µg/mL.

Please give measured solubility of the following entry: `COc1cc2c(cc1OC)-c1n[nH]c(Nc3cccc(F)c3)c1C2`
10000

====

Reported concentration at 5 h values are given for each entry in this list.
Assay: Intraduodenal dosing with and without β-glucuronidase, catheterized rat
Format: in vivo
Settings: male, Sprague Dawley, rat, plasma, other: intraduodenal, 10 mg/kg, rats N=6; Compound 1 10 mg/kg intraduodenal with β-glucuronidase; 5 hrs
Give a bare numeral; the unit ng/mL is implied.

Some compounds with recorded concentration at 5 h:
compound	concentration at 5 h (ng/mL)
COc1cc2c(cc1OC)-c1nn(C3OC(C(=O)O)C(O)C(O)C3O)c(Nc3cccc(F)c3)c1C2 (stereo in doubt)	146
COc1cc2c(cc1OC)-c1n[nH]c(N(c3cccc(F)c3)[C@H]3O[C@@H](C(=O)O)[C@H](O)[C@@H](O)[C@@H]3O)c1C2	420

From here, focus on the item given below.
Give the reported concentration at 5 h for this compound. `COc1cc2c(cc1OC)-c1n[nH]c(Nc3cccc(F)c3)c1C2`
3.7

====

Assay: Intraduodenal dosing with and without β-glucuronidase, catheterized rat
Assay type: in vivo
Settings: male, Sprague Dawley, rat, plasma, 10 mg/kg, rats N=6; Compound 1 10 mg/kg intraduodenal without enzyme; read-out: Cmax average ± standard deviation
measured_quantity: Cmax (ng/mL)
Write it as a number; the unit ng/mL goes unstated.

molecule	value_unit	Cmax
COc1cc2c(cc1OC)-c1nn(C3OC(C(=O)O)C(O)C(O)C3O)c(Nc3cccc(F)c3)c1C2 (stereo in doubt)	ng/mL	75.7
COc1cc2c(cc1OC)-c1n[nH]c(Nc3cccc(F)c3)c1C2	ng/mL	75

Next, consider the following molecule.
Find the measured Cmax of `COc1cc2c(cc1OC)-c1n[nH]c(N(c3cccc(F)c3)[C@H]3O[C@@H](C(=O)O)[C@H](O)[C@@H](O)[C@@H]3O)c1C2` and report it.
717

====

Test: Oral gavage pharmacokinetics, jugular and portal vein sampling, first pass metabolism
Format: in vivo, rat
Conditions: male, Sprague Dawley, rat, plasma (jugular vein sample); rats N=4; Compound 1 75 mg/kg oral gavage; jugular sample; 2 hrs
Reported concentration at 2 h values follow for various compounds

As a guide, the following entries are already answered.
compound	data_value
COc1cc2c(cc1OC)-c1nn(C3OC(C(=O)O)C(O)C(O)C3O)c(Nc3cccc(F)c3)c1C2 (stereo in doubt)	141 ng/mL
COc1cc2c(cc1OC)-c1n[nH]c(Nc3cccc(F)c3)c1C2	378 ng/mL

Check the records and state concentration at 2 h for `COc1cc2c(cc1OC)-c1n[nH]c(N(c3cccc(F)c3)[C@H]3O[C@@H](C(=O)O)[C@H](O)[C@@H](O)[C@@H]3O)c1C2`
11100 ng/mL

====

Experiment: Oral gavage pharmacokinetics, jugular and portal vein sampling, first pass metabolism
Format: in vivo, rat
Conditions: male, Sprague Dawley, rat, plasma (portal vein sample); rats N=4; Compound 1 75 mg/kg oral gavage; portal sample; 6 hrs
Each entry below lists one item and its recorded concentration at 6 h value.
// unit must come after the numeric part

Example cases with answers are listed next.
compound	concentration at 6 h
COc1cc2c(cc1OC)-c1n[nH]c(N(c3cccc(F)c3)[C@H]3O[C@@H](C(=O)O)[C@H](O)[C@@H](O)[C@@H]3O)c1C2	11600 ng/mL
COc1cc2c(cc1OC)-c1n[nH]c(Nc3cccc(F)c3)c1C2	1010 ng/mL

Query concentration at 6 h for COc1cc2c(cc1OC)-c1nn(C3OC(C(=O)O)C(O)C(O)C3O)c(Nc3cccc(F)c3)c1C2 (stereo in doubt)
120 ng/mL

====

Assay: Intraduodenal dosing with and without β-glucuronidase, catheterized rat
Type: in vivo
Settings: male, Sprague Dawley, rat, plasma, other: intraduodenal, 10 mg/kg, rats N=6; Compound 1 10 mg/kg intraduodenal without enzyme; 1 hr
measured_quantity: concentration at 1 h (ng/mL)
Kindly provide the numeric value in ng/mL only, without the unit symbol.

Example entries and their recorded answers appear below.
molecule	value_unit	concentration at 1 h
COc1cc2c(cc1OC)-c1nn(C3OC(C(=O)O)C(O)C(O)C3O)c(Nc3cccc(F)c3)c1C2 (stereo in doubt)	ng/mL	51.2
COc1cc2c(cc1OC)-c1n[nH]c(N(c3cccc(F)c3)[C@H]3O[C@@H](C(=O)O)[C@H](O)[C@@H](O)[C@@H]3O)c1C2	ng/mL	463

Give the measured concentration at 1 h for `COc1cc2c(cc1OC)-c1n[nH]c(Nc3cccc(F)c3)c1C2`
18.7

====

Experiment: Intracolonic dosing with and without β-glucuronidase, catheterized rat
Assay type: in vivo
Conditions: male, Sprague Dawley, rat, plasma, other: intracolonic, 10 mg/kg, rats N=6; Compound 1 10 mg/kg intracolonic with β-glucuronidase; 1 hr
measured_quantity: concentration at 1 h (µg/mL)
Use µg/mL as the unit, but write only the number.

compound	concentration at 1 h [µg/mL]
COc1cc2c(cc1OC)-c1n[nH]c(Nc3cccc(F)c3)c1C2	0.0756
COc1cc2c(cc1OC)-c1nn(C3OC(C(=O)O)C(O)C(O)C3O)c(Nc3cccc(F)c3)c1C2 (stereo in doubt)	0.676

Next compound, concentration at 1 h to be filled in.
State its concentration at 1 h for this compound: `COc1cc2c(cc1OC)-c1n[nH]c(N(c3cccc(F)c3)[C@H]3O[C@@H](C(=O)O)[C@H](O)[C@@H](O)[C@@H]3O)c1C2`
3.86

====

Collected concentration at 0.33 h values appear next to each entry.
Assay: Oral gavage pharmacokinetics, jugular and portal vein sampling, first pass metabolism
Assay type: in vivo, rat
Details: male, Sprague Dawley, rat, portal vein plasma; rats N=4; Compound 1 75 mg/kg oral gavage; portal sample; 0.33 hrs
Quick reminder: number only, in ng/mL, skip the unit.

// solved cases for concentration at 0.33 h follow
molecule	concentration at 0.33 h / ng/mL
COc1cc2c(cc1OC)-c1n[nH]c(Nc3cccc(F)c3)c1C2	3880
COc1cc2c(cc1OC)-c1n[nH]c(N(c3cccc(F)c3)[C@H]3O[C@@H](C(=O)O)[C@H](O)[C@@H](O)[C@@H]3O)c1C2	22400

# evaluate next
Identify measured concentration at 0.33 h associated with COc1cc2c(cc1OC)-c1nn(C3OC(C(=O)O)C(O)C(O)C3O)c(Nc3cccc(F)c3)c1C2 (stereo in doubt)
263
